// melting point lookup, one value per entry
Structures can show the parent of a compound that is named as a salt.
measurement.type: melting point

compound	reported.value
Cc1cccc(C)c1C(=NC(=Nc1ccccc1)N1CCOCC1)Nc1ccc(F)cc1 (as salt: hydrochloride)	249 to 251 °C (dec.)
c1ccc(N=C(NC(=Nc2ccccc2)N2CCCCCCC2)c2ccccc2)cc1 (as salt: hydroiodid)	252 to 253 °C (dec.)
COc1ccc(N=C(NC(=Nc2ccccc2)N2CCCCCC2)c2ccccc2)cc1 (as salt: hydroiodid)	241 to 243 °C
Cc1cccc(C)c1C(=Nc1ccc(F)cc1)NC(=Nc1ccccc1)N1C(C)CCCC1C (stereo not shown) (as salt: hydrochloride) [Example 59]	165 to 167 °C (dec.)
Cc1ccccc1C(=NC(=Nc1ccccc1)N1CCCC1)Nc1ccccc1 (as salt: hydrochloride)	191 to 192 °C
COc1ccc(NC(=CC(=Nc2ccccc2)N2CCCCO2)c2ccccc2C)cc1 (as salt: hydrochloride)	192 to 194 °C
OC1CCCN(C(=Nc2ccccc2)NC(=Nc2ccccc2)c2ccccc2)C1 (stereo not shown) (as salt: nitrate)	189 to 192 °C
Cc1cccc(C)c1C(=NC(=Nc1ccc(F)cc1)N1CCCCC1C)Nc1ccc(F)cc1 (stereo not shown) (as salt: hydrochloride)	162 to 164 °C (dec.)
Cc1cccc(C)c1C(=Nc1ccc(F)cc1)NC(=Nc1ccccc1Cl)N1CCCCC1C (stereo not shown) (as salt: hydrochloride)	207 to 209 °C
Cc1cccc(C)c1C(=Nc1ccc(F)cc1)NC(=Nc1ccccc1)N1CCCCC1C (stereo not shown) (as salt: hydrochloride)	181 to 183 °C
CC1CCCC(C)N1C(=Nc1ccc(F)cc1)NC(=Nc1ccc(F)cc1)c1c(F)cccc1F (stereo not shown) (as salt: nitrate)	172 to 174 °C
c1ccc(N=C(N=C(Nc2ccccc2)c2ccccc2)N2CCCCC2)cc1 (as salt: hydroiodid)	198 to 200 °C (dec.)
Cc1ccccc1C(=Nc1ccccc1)NC(=Nc1ccc(F)cc1)N1CCC(O)CC1 (as salt: hydrochloride)	224 to 225 °C
Cc1ccccc1C(=Nc1ccc(F)cc1)NC(=Nc1ccccc1)C12CC3CC(CC(C3)C1)C2 (as salt: hydrochloride)	219 to 221 °C
Cc1cccc(C)c1C(=Nc1ccc(F)cc1)NC(=NC1CCC1)N1CCCCC1C (stereo not shown) (as salt: hydrochloride)	136 to 138 °C
Cc1ccccc1C(=NC(=Nc1ccccc1)C1(C)CCCCC1)Nc1ccc(F)cc1	210 to 211 °C
Cc1ccccc1C(=NC(=Nc1ccccc1)N1CCC(O)CC1)Nc1ccc(F)cc1 (as salt: hydrochloride)	228 to 230 °C (dec.)
CC1CCCCN1C(=Nc1ccccc1)NC(=Nc1ccccc1)c1ccccc1 (stereo not shown) (as salt: hydroiodid) [Example 32]	181 to 183 °C
Clc1ccc(NC(=NC(=Nc2ccccc2)N2CCCC2)c2ccccc2)cc1 (as salt: hydrochloride)	219 to 221 °C
Cc1ccccc1C(=NC(=Nc1ccccc1)N1CCCCO1)Nc1ccc(F)cc1 (as salt: hydrochloride)	199 to 200 °C (dec.)
Fc1ccc(N=C(NC(=Nc2ccccc2)N2CCCCCC2)c2ccccc2)cc1 (as salt: hydroiodid)	> 228 °C (dec.)
Cc1cccc(C)c1C(=NC(=Nc1ccccc1)N1CCCC(O)C1)Nc1ccc(F)cc1 (stereo not shown) (as salt: hydrochloride)	196 to 198 °C (dec.)
Cc1ccccc1C(=NC(=Nc1ccncc1)N1CCCCC1C)Nc1ccc(F)cc1 (stereo not shown) (as salt: nitrate)	209 to 210 °C (dec.)
CC1CCCN(C(=Nc2ccccc2)NC(=Nc2ccccc2)c2ccccc2)C1 (stereo not shown) (as salt: hydroiodid)	179 to 182 °C (dec.)
Cc1ccccc1C(=CC(=NC1CCCCC1)N1CCCCO1)Nc1ccc(F)cc1 (as salt: hydrochloride)	171 to 172 °C
Cc1ccccc1C(=Nc1ccc(F)cc1)NC(=Nc1ccccc1)N1CCCCCC1 (as salt: hydrochloride)	240 to 242 °C
CC1CCCCN1C(=Nc1ccccc1)NC(=Nc1ccccc1)c1ccccc1 (stereo not shown) (as salt: hydroiodid) [Example 33]	180 to 182 °C
Fc1ccccc1N=C(NC(=Nc1ccccc1)c1ccccc1)N1CCCC1 (as salt: hydrochloride)	254 to 255 °C
